molecular target: 5-hydroxytryptamine receptor 1A (Rattus norvegicus)
For each entry below, report its IC50 value.
One number for each entry, in nM.

// below: answered compounds
Compound: c1ccc2c(CCCCN3CCN(c4ccc5c(c4)OCCO5)CC3)c[nH]c2c1
Unit Info: nM
IC50: 8
//
Compound: N#Cc1ccc2[nH]cc(CCCCN3CCN(c4ccc(C#N)c(C#N)c4)CC3)c2c1
Unit Info: nM
IC50: 12
//
Compound: N#Cc1ccc2[nH]cc(CCCCN3CCN(c4ccc(C(N)=O)cc4)CC3)c2c1
Unit Info: nM
IC50: 118
//
Compound: O=Cc1ccc2[nH]cc(CCCCN3CCN(c4ccc5c(c4)OCCO5)CC3)c2c1
Unit Info: nM
IC50: 0.7
//
Compound: Oc1ccc2[nH]cc(CCCCN3CCN(c4ccc5c(c4)OCCO5)CC3)c2c1
Unit Info: nM
IC50: 0.2

Working through the 3 compounds below one at a time, give IC50 for each.
1. NC(=O)c1cc2cc(N3CCN(CCCCc4c[nH]c5ccc(F)cc45)CC3)ccc2o1
2. O/N=C/c1ccc2[nH]cc(CCCCN3CCN(c4ccc5c(c4)OCCO5)CC3)c2c1
3. N#Cc1ccc2[nH]cc(CCCCN3CCN(c4ccccc4)CC3)c2c1

1. 3
2. 0.4
3. 400

Your task in this section: give IC50 for each listed record.
1. COc1ccc(N2CCN(CCCCc3c[nH]c4ccc(C#N)cc34)CC2)cc1OC
2. Clc1ccc2[nH]cc(CCCCN3CCN(c4ccc5c(c4)OCCO5)CC3)c2c1
3. Fc1ccc2[nH]cc(CCCCN3CCN(c4ccc5c(c4)OCCO5)CC3)c2c1
4. COc1cccc(N2CCN(CCCCc3c[nH]c4ccc(C#N)cc34)CC2)c1C#N
5. N#Cc1ccc(N2CCN(CCCCc3c[nH]c4ccc(F)cc34)CC2)cc1

1. 60
2. 40
3. 5
4. 5.6
5. 40

====

biological target: Sodium-dependent serotonin transporter (Rattus norvegicus, UniProt P31652); experiment: Inhibition of [3H]5-HT re-uptake in rat synaptosomes
Sequence (P31652 whole entry): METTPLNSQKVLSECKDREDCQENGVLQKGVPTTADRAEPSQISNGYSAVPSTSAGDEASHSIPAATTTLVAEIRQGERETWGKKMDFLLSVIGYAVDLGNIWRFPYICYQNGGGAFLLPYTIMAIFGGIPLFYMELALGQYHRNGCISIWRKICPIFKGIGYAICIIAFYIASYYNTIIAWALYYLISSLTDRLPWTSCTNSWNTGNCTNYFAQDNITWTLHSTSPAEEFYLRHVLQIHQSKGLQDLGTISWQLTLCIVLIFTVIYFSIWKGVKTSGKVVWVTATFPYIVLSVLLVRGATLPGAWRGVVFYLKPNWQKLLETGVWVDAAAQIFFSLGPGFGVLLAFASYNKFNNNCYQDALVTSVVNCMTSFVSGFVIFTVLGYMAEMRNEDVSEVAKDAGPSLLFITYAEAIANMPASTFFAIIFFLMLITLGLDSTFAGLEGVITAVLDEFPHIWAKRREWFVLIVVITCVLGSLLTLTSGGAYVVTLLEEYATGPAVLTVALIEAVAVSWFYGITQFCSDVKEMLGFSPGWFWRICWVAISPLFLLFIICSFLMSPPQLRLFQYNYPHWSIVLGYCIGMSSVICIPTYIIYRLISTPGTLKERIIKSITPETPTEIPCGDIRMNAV
Measured Endpoint: log10 of IC50 (log10 of the value in nM)
Scale type: logarithmic (base 10). Underlying IC50 unit: nM.

Compound: N#Cc1cc2cc(N3CCN(CCCCc4c[nH]c5ccc(F)cc45)CC3)ccc2o1
Observed Result: 0.48
//
Compound: N#Cc1ccc2[nH]cc(CCCCN3CCN(c4cccc5cc(C(N)=O)oc45)CC3)c2c1
Observed Result: 0.41
//
Compound: N#Cc1ccc2[nH]cc(CCCCN3CCN(c4c(C#N)cccc4C#N)CC3)c2c1
Observed Result: 0.30
//
Compound: O=Cc1ccc2[nH]cc(CCCCN3CCN(c4ccc5c(c4)OCCO5)CC3)c2c1
Observed Result: 0.00
//
Compound: N#Cc1ccc2[nH]cc(CCCCN3CCN(c4ccc5sc(C(N)=O)cc5c4)CC3)c2c1
Observed Result: -0.52

I would be grateful if you could provide log10 of IC50 for each of the following entries.
1. COc1cc(C#N)ccc1N1CCN(CCCCc2c[nH]c3ccc(C#N)cc23)CC1
2. Oc1ccc2[nH]cc(CCCCN3CCN(c4ccc5c(c4)OCCO5)CC3)c2c1

0.61
-0.30

====

target: UniProtKB P61169; assay: Displacement of [3H]spiperone from dopamine D2 receptor of rat striatal membranes
Sequence (P61169 whole entry): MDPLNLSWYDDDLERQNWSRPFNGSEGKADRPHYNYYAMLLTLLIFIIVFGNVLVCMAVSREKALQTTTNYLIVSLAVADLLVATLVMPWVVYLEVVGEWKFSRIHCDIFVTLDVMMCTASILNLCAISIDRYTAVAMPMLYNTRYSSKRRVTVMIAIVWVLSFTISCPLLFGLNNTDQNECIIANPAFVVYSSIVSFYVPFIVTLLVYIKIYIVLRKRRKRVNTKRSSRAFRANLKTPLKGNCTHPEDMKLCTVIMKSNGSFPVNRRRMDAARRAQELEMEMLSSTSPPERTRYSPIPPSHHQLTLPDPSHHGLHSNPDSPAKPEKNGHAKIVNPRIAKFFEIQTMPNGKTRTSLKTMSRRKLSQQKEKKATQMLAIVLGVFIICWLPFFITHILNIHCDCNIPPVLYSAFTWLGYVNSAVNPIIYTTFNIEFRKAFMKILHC
Measured Endpoint: IC50 (nM)
One number for each entry, in nM.

Chem Smiles: N#Cc1ccc2[nH]cc(CCCCN3CCN(c4cccc5oc(C(N)=O)cc45)CC3)c2c1
Unit Info: nM
Observed Result: 6.6

Now turn to the next compound.
Requested read-out: IC50. Entry: N#Cc1ccc2[nH]cc(CCCCN3CCN(c4ccc5occc5c4)CC3)c2c1
8

====

I'd appreciate it if you could supply pIC50 values for the items below.
Target: 5-hydroxytryptamine receptor 1A (Rattus norvegicus, UniProt P19327)
Sequence (P19327 whole entry): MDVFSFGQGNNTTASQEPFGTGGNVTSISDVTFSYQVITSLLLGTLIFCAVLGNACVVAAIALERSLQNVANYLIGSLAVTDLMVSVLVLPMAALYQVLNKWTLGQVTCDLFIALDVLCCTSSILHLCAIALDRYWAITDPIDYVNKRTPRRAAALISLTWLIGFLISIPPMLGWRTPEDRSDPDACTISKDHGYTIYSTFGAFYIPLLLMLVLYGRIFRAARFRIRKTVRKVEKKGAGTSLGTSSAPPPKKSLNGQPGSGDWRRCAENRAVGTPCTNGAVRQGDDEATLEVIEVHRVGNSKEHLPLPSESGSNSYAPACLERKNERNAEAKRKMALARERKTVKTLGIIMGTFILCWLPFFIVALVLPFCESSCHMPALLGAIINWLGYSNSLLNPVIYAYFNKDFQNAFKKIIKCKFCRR
Answers are plain numbers, as −log10 of the molar value.

See these solved cases before continuing.
Compound: COC(=O)c1ccc2[nH]cc(CCCCN3CCN(c4ccc5c(c4)OCCO5)CC3)c2c1
pIC50: 9.22

Compound: COc1ccc(N2CCN(CCCCc3c[nH]c4ccc(C#N)cc34)CC2)cc1
pIC50: 9.00

Compound: N#Cc1ccc2[nH]cc(CCCCN3CCN(c4ccc5sc(C(N)=O)cc5c4)CC3)c2c1
pIC50: 8.51

Compound: N#Cc1ccc2[nH]cc(CCCCN3CCN(c4cc(F)c(C#N)c(F)c4)CC3)c2c1
pIC50: 7.44

Compound: N#Cc1ccc2[nH]cc(CCCCN3CCN(c4ccc5c(c4)OCCO5)CC3)c2c1
pIC50: 9.00

Compound: Fc1ccc2[nH]cc(CCCCN3CCN(c4ccc5c(c4)OCO5)CC3)c2c1
pIC50: 8.40

Compound: N#Cc1ccc2[nH]cc(CCCCN3CCN(c4cccc5oc(C(N)=O)cc45)CC3)c2c1
pIC50: 8.85

Compound: N#Cc1ccc2[nH]cc(CCCCN3CCN(c4cccc5nsnc45)CC3)c2c1
pIC50: 9.00

Compound: N#Cc1ccc2[nH]cc(CCCCN3CCN(c4ccc(O)c(C#N)c4)CC3)c2c1
pIC50: 6.40

Compound: COc1cc(N2CCN(CCCCc3c[nH]c4ccc(C#N)cc34)CC2)ccc1C#N
pIC50: 7.85

For each of the compounds below, note its pIC50.
1. N#Cc1ccc2[nH]cc(CCCCN3CCN(c4ccc5c(c4)OCO5)CC3)c2c1
2. COc1ccc(Cl)cc1N1CCN(CCCCc2c[nH]c3ccc(C#N)cc23)CC1
3. N#Cc1ccc(N2CCN(CCCCc3c[nH]c4ccc(C#N)cc34)CC2)cc1
4. N#Cc1ccc2[nH]cc(CCCCN3CCN(c4ccc5c(c4)CC(C(N)=O)O5)CC3)c2c1 (stereo not given)
5. N#Cc1ccc2[nH]cc(CCCCN3CCN(c4ccc5c(c4)CCCO5)CC3)c2c1

1. 9.15
2. 7.52
3. 8.96
4. 8.49
5. 8.30

====

molecular target: Sodium-dependent serotonin transporter (Rattus norvegicus, UniProt P31652); assay: Inhibition of [3H]5-HT re-uptake in rat synaptosomes
pIC50: −log10 of the molar value.
# cutoff 9 applies to pIC50; >= gives Condition met, < gives Condition not met

Solved entries:
Compound: N#Cc1ccc2[nH]cc(CCCCN3CCN(c4ccc5nsnc5c4)CC3)c2c1
Cat: Condition not met

Compound: N#Cc1ccc2[nH]cc(CCCCN3CCN(c4ccc(C#N)c(C#N)c4)CC3)c2c1
Cat: Condition not met

Confirm if pIC50 reported for the compound N#Cc1ccc2[nH]cc(CCCCN3CCN(c4ccc5occc5c4C(N)=O)CC3)c2c1 is 9 or above.
Condition not met

====

Record form. Attribute: IC50. Fill in for each entry.
biological target: Sodium-dependent serotonin transporter (Rattus norvegicus, UniProt P31652); assay: Inhibition of [3H]5-HT re-uptake in rat synaptosomes
Answers are plain numbers, in nM.

These solved cases illustrate the format of a correct answer.
Compound: COc1ccc(N2CCN(CCCCc3c[nH]c4ccc(C#N)cc34)CC2)cc1
IC50 / nM: 0.5

Compound: COc1ccc2[nH]cc(CCCCN3CCN(c4ccc5c(c4)OCCO5)CC3)c2c1
IC50 / nM: 100

Compound: N#Cc1ccc2[nH]cc(CCCCN3CCN(c4ccc(O)c(C#N)c4)CC3)c2c1
IC50 / nM: 0.8

Compound: N#Cc1ccc2[nH]cc(CCCCN3CCN(c4ccc5oc(C#N)cc5c4)CC3)c2c1
IC50 / nM: 1

Compound: Clc1ccc2[nH]cc(CCCCN3CCN(c4ccc5c(c4)OCCO5)CC3)c2c1
IC50 / nM: 20

Provide reported IC50 for each item, in the same order as listed.
1. N#Cc1ccc2[nH]cc(CCCCN3CCN(c4ccc5c(c4)OCO5)CC3)c2c1
2. N#Cc1ccc2[nH]cc(CCCCN3CCN(c4ccc5occc5c4)CC3)c2c1
3. COc1ccc(N2CCN(CCCCc3c[nH]c4ccc(C#N)cc34)CC2)cc1OC
4. N#Cc1ccc2[nH]cc(CCCCN3CCN(c4ccc(F)cc4)CC3)c2c1
5. O=c1ccc2cc(N3CCN(CCCCc4c[nH]c5ccc(F)cc45)CC3)ccc2o1
6. N#Cc1ccc2[nH]cc(CCCCN3CCN(c4ccc5c(c4)CCCO5)CC3)c2c1
7. N#Cc1ccc2[nH]cc(CCCCN3CCN(c4ccc5[nH]c(C(N)=O)cc5c4)CC3)c2c1

1. 0.6
2. 3.9
3. 0.3
4. 1
5. 0.9
6. 0.9
7. 2

Give IC50 for all compounds that follow.
1. N#Cc1ccc2[nH]cc(CCCCN3CCN(c4cc(F)c(C#N)c(F)c4)CC3)c2c1
2. N#Cc1ccc2[nH]cc(CCCCN3CCN(c4cccc5nsnc45)CC3)c2c1
3. COC(=O)c1ccc2[nH]cc(CCCCN3CCN(c4ccc5c(c4)OCCO5)CC3)c2c1

5.4
1.5
50

Please give IC50 for each item listed below.
1. N#Cc1ccc2[nH]cc(CCCCN3CCN(c4ccc5[nH]ccc5c4)CC3)c2c1
2. NC(=O)c1ccc2[nH]cc(CCCCN3CCN(c4ccc5c(c4)OCCO5)CC3)c2c1
3. N#Cc1ccc2[nH]cc(CCCCN3CCN(c4ccc(C(N)=O)cc4)CC3)c2c1
4. Fc1ccc2[nH]cc(CCCCN3CCN(c4ccc5c(c4)OCO5)CC3)c2c1
5. NC(=O)c1cc2cc(N3CCN(CCCCc4c[nH]c5ccc(F)cc45)CC3)ccc2o1
6. N#Cc1ccc2[nH]cc(CCCCN3CCN(c4ccccc4)CC3)c2c1
7. N#Cc1ccc2[nH]cc(CCCCN3CCN(c4cccc5oc(C(N)=O)cc45)CC3)c2c1
8. N#Cc1ccc(N2CCN(CCCCc3c[nH]c4ccc(F)cc34)CC2)cc1

2.4
60
0.6
1
0.3
1
8.5
2

Data origin, for the record: ChEMBL document CHEMBL1138747
